# Test system: sonic hedgehog pathway
# test_details: Human hedgehog reporter assay Daoy-GliLuc (DGL)
# Format: cell-based
# assay_context: Daoy human medulloblastoma cells, Gli-luciferase reporter; read-out: Daoy Avg. EC50
Structures can show the parent of a compound that is named as a salt.
attribute_measured: EC50

- CCOc1ccc(-c2cncnc2)cc1CN(C(=O)c1sc2ccccc2c1Cl)[C@H]1CC[C@@H](NC)CC1 [Compound 326, dihydrochloride]: < 50 nM
- CN[C@H]1CC[C@@H](N(Cc2cc(-c3ccc(C(C)=O)cc3)ccc2OC)C(=O)c2sc3c(F)ccc(F)c3c2Cl)CC1 [Compound 332, hydrochloride]: < 50 nM
- CN[C@H]1CC[C@@H](N(Cc2cc(-c3ccncc3)ccc2OC)C(=O)c2sc3c(F)ccc(F)c3c2Cl)CC1 [Compound 342, dihydrochloride]: < 50 nM
- CN[C@H]1CC[C@@H](N(Cc2cc(-c3cnc(N(C)C)nc3)ccc2OC)C(=O)c2sc3ccccc3c2Cl)CC1 [Compound 321, dihydrochloride]: 50 to 250 nM
- CN[C@H]1CC[C@@H](N(Cc2cc(-c3cccc(C#N)c3)ccc2OC)C(=O)c2sc3cccc(F)c3c2Cl)CC1 [Compound 365, hydrochloride]: < 50 nM
- CN[C@H]1CC[C@@H](N(Cc2cc(-c3ccccc3)ccc2OC)C(=O)c2sc3ccccc3c2Cl)CC1 [Compound R3, hydrochloride]: 50 to 250 nM

Attribution: patent US20080182859A1
